Molecular target: Alpha-Synuclein Protofibril binding to purified human brain membranes (Homo sapiens, UniProt P37840)
Assay: Inhibition of protofibrillar alpha-synuclein binding to purified human brain cell membranes (ELISA)
Settings: Alpha-Synuclein/Membrane Activity (IC-50), alpha-synuclein protofibrils
Description: Purified human brain cell membranes were prepared by differential centrifugation as follows. […] Protein concentration was measured with BCA protein assay kit (Pierce Cat. No. 23227). […] Bound GBAP was detected by a monoclonal antibody specific for that GBAP, followed by incubation with secondary antibody conjugated to horseradish peroxidase (HRP). […] The Optical Density of the samples was measured at 450 nm using an ELISA plate reader (BioTek Synergy H1). […] IC-50s were calculated using GraphPad Prism software. […]
pIC50: −log10 of the molar value. Structures can show the parent of a compound that is named as a salt.
Binary classification by pIC50, with 5 as an inclusive lower bound for Y; all other cases are N.

Below, 6 molecules whose answers are already recorded.
{"MOLECULE": "Clc1ccc2c(Nc3ccc(-n4cncn4)nc3)ncnc2c1", "QUALITATIVE LABEL": "Y"}
{"MOLECULE": "Clc1ccc2c(Nc3ccc(-n4cncn4)nc3)ccnc2c1", "QUALITATIVE LABEL": "N"}
{"MOLECULE": "Clc1ccc2c(N/N=C/c3ccc(-n4ccnc4)cc3)ccnc2c1 [Compound 38, dihydrochloride]", "QUALITATIVE LABEL": "Y"}
{"MOLECULE": "C/C(=N\\Nc1ncnc2cc(Cl)ccc12)c1ccc(-n2cnc(C)c2C)nc1 [Compound 16, phosphate]", "QUALITATIVE LABEL": "Y"}
{"MOLECULE": "Cc1ncn(-c2ccc(Nc3ncnc4cc(Cl)ccc34)cn2)c1C", "QUALITATIVE LABEL": "Y"}
{"MOLECULE": "Cc1ncn(-c2ncc(Nc3ncnc4cc(Cl)ccc34)cc2O)c1C", "QUALITATIVE LABEL": "N"}

Asked: Is pIC50 at least 5? Consider Clc1ccc2c(N/N=C/c3ccc(-n4ccnc4)nc3)ccnc2c1 [Compound 14, hydrochloride]
Given back: Y

Asked: Quick check: does Cc1ncn(-c2ccc(/C=N\Nc3ncnc4cc(Cl)ccc34)cn2)c1C [Compound 15, hydrochloride] have pIC50 greater than or equal to 5?
Given back: Y

* * *

biological target: SAA binding to purified THP-1 cell membranes (Homo sapiens, UniProt P0DJI8); experiment: Inhibition of SAA binding to purified cell membranes (ELISA); details: purified cell membranes (THP-1 per Example 54), hydrochloride, read-out: Serum Amyloid A/Membrane Activity (IC-50)
Counter-ions that a name gives are not always drawn.
OBSERVED PROPERTY: pIC50
Quick note: pIC50 values are minus log10 of concentrations in mol/L.

The molecule C/C(=N\Nc1ncnc2cc(Cl)ccc12)c1ccc(-n2cc(C)nc2C)nc1 [Compound 27, hydrochloride] , tested on SAA binding to purified THP-1 cell membranes (Homo sapiens, UniProt P0DJI8), showed pIC50 of 4.85

* * *

biological target: Tau binding to heparin (HS-GAG) (Homo sapiens); experiment: Inhibition of Tau binding to immobilized heparin-BSA (ELISA); set-up: species or system porcine; conditions: read-out: Tau/Heparin Activity (% inhibition class)
Sequence (P10636 with tags, fused parts or gaps): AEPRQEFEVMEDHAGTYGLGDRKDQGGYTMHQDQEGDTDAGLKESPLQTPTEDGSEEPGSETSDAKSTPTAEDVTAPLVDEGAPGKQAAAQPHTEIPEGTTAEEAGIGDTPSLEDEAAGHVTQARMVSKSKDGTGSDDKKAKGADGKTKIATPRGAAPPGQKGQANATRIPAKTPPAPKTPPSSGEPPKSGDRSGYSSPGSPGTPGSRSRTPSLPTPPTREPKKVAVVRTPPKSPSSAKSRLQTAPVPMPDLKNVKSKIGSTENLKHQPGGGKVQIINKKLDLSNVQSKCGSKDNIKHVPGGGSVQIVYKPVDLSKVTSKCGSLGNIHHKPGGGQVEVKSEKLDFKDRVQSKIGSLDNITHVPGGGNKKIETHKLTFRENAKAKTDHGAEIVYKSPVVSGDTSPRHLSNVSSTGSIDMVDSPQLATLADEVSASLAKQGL
# inhibition at 30 µM values compiled below

Here is how some compounds turned out for inhibition at 30 µM.
{"COMPOUND": "C/C(=N\\Nc1ncnc2cc(Cl)ccc12)c1ccc(-n2cncn2)nc1", "inhibition at 30 µM": "< 30%"}
{"COMPOUND": "C(=N\\Nc1ccc2c3c(cccc13)CC2)/c1ccc(-n2ccnc2)cc1", "inhibition at 30 µM": "< 30%"}
{"COMPOUND": "Clc1ccc2c(Nc3ccc(-n4cncn4)nc3)ncnc2c1", "inhibition at 30 µM": "< 30%"}
{"COMPOUND": "C[n+]1ccn(-c2ccc(Nc3ncnc4cc(Cl)ccc34)cn2)c1", "inhibition at 30 µM": "< 30%"}
{"COMPOUND": "Cc1ncn(-c2ccc(Nc3ncnc4cc(Cl)ccc34)cn2)c1C", "inhibition at 30 µM": "< 30%"}

The compound identified as Clc1ccc2c(Nc3ccc(-n4cncn4)nc3)ccnc2c1 registered its inhibition at 30 µM at > 30%

response.value for CN1CCN(c2cc(Nc3ccnc4cc(Cl)ccc34)ccn2)CC1 (field: inhibition at 30 µM) = < 30%

Lab note: measured inhibition at 30 µM of COc1cc2nccc(N/N=C/c3ccc(-n4ccnc4)c(OC)c3)c2cc1OC [Compound 13, phosphate] was < 30%

The reported value for Cc1cn(-c2ccc(Nc3cncc4cc(Cl)ccc34)cn2)c(C)n1 in terms of inhibition at 30 µM is < 30%

inhibition at 30 µM reading for Cc1ncn(-c2ncc(Nc3ncnc4cc(Cl)ccc34)cc2O)c1C : > 30%

* * *

Molecular target: UniProtKB P0DJI8
Sequence (P0DJI8 19-122): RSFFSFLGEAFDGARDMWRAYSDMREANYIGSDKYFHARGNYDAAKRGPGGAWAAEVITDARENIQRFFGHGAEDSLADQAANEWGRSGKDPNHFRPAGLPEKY
Assay: Inhibition of SAA binding to immobilized heparin-BSA (ELISA)
Design: species or system porcine
Details: read-out: Serum Amyloid A/Heparin Activity (% inhibition class)
Structures can show the parent of a compound that is named as a salt.
OBSERVED PROPERTY: inhibition at 30 µM

For orientation, consider the following solved cases.
{"MOLECULE": "Cc1ncn(-c2ncc(Nc3ncnc4cc(Cl)ccc34)cc2O)c1C", "inhibition at 30 µM": "> 30%"}
{"MOLECULE": "Cc1cn(-c2ccc(Nc3cncc4cc(Cl)ccc34)cn2)c(C)n1", "inhibition at 30 µM": "< 30%"}
{"MOLECULE": "COc1cc(Nc2nncc3cc(Cl)ccc23)cnc1-n1cnc(C)c1C", "inhibition at 30 µM": "> 30%"}

response.value for C/C(=N\Nc1ncnc2cc(F)ccc12)c1ccc(-n2cc[n+](C)c2)nc1 (field: inhibition at 30 µM) = < 30%

Record COc1cc2nccc(N/N=C/c3ccc(-n4ccnc4)c(OC)c3)c2cc1OC [Compound 13, phosphate] . Reported inhibition at 30 µM: < 30%

# inhibition at 30 µM (molecule: C/C(=N\Nc1ncnc2cc(Cl)ccc12)c1cccc(CN(C)C)c1 ) is < 30%

So for CC(=NNc1ccnc2cc(Cl)ccc12)c1ccc(-n2cc[n+](C)c2)nc1 , the logged inhibition at 30 µM turned out to be < 30%

Short answer for COc1cc(Nc2cncc3cc(Cl)ccc23)cnc1-n1cnc(C)c1C : inhibition at 30 µM was < 30%

Documented inhibition at 30 µM of COc1cc2nccc(NN=Cc3ccc(-n4ccnc4)c(C)c3)c2cc1OC [Compound 11, hydrochloride] : < 30%

* * *

molecular target: Amyloid-beta(1-40) binding to purified human brain membranes (Homo sapiens); construct: Beta-amyloid (1-40) from rPeptide (Cat No. A1153) was dissolved in DMSO; purchased rPeptide A1153; test: Inhibition of Amyloid-beta(1-40) binding to purified human brain cell membranes (ELISA); conditions: Abeta(1-40), read-out: Abeta40/Membrane Activity (IC-50)
Sequence (P05067 672-711): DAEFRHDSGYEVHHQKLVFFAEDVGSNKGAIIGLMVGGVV
Counter-ions that a name gives are not always drawn.
Some compounds, each annotated with its measured pIC50.
Lab note — pIC50 values are minus log10 of concentrations in M.

{"COMPOUND": "C/C(=N\\Nc1ncnc2cc(Cl)ccc12)c1ccc(-n2cc[n+](C)c2)nc1", "TARGET DESC": "Amyloid-beta(1-40) binding to purified human brain membranes (Homo sapiens)", "pIC50": 4.55}
{"COMPOUND": "C/C(=N\\Nc1ncnc2cc(Cl)ccc12)c1ccc(-n2cc(C)nc2C)nc1 [Compound 27, hydrochloride]", "TARGET DESC": "Amyloid-beta(1-40) binding to purified human brain membranes (Homo sapiens)", "pIC50": 5.65}

// assay Amyloid-beta(1-40) binding to purified human brain membranes (Homo sapiens), entry C/C(=N\Nc1ncnc2cc(Cl)ccc12)c1ccc(-n2cnc(C)c2C)nc1 [Compound 16, phosphate] , pIC50 value = 5.54

Reading of pIC50 for C/C(=N\Nc1nncc2cc(Cl)ccc12)c1ccc(-n2cc(C)nc2C)nc1 with Amyloid-beta(1-40) binding to purified human brain membranes (Homo sapiens): 4.61

Value (pIC50, Amyloid-beta(1-40) binding to purified human brain membranes (Homo sapiens)) for record CC(=NNc1ccnc2cc(Cl)ccc12)c1ccc(-n2cnc(C)c2C)nc1 = 5.75

The compound Clc1ccc2c(Nc3ccc(-n4cncn4)nc3)ccnc2c1 on Amyloid-beta(1-40) binding to purified human brain membranes (Homo sapiens): pIC50 was 4.37

* * *

target: Amyloid-beta(1-40) binding to heparin (HS-GAG) (Homo sapiens); test: Inhibition of Amyloid-beta(1-40) binding to immobilized heparin-BSA (ELISA); design: species or system porcine; conditions: Abeta(1-40), co-incubation on heparin-BSA plates; read-out: Abeta40/Heparin Activity (IC-50)
Sequence (P05067 672-711): as above
OBSERVED PROPERTY: log10 of IC50 (log10 of the value in µM)
Plainly stated, the numbers are log10 of IC50 given in µM.

These recorded examples may help you get a feel for the data.
{"SMILES REPRESENTATION": "C/C(=N\\Nc1ncnc2cc(Cl)ccc12)c1ccc(-n2cc(C)nc2C)nc1", "TARGET DESC": "Amyloid-beta(1-40) binding to heparin (HS-GAG) (Homo sapiens)", "log10 of IC50": 0.52}
{"SMILES REPRESENTATION": "C/C(=N\\Nc1nncc2cc(Cl)ccc12)c1ccc(-n2cc(C)nc2C)nc1", "TARGET DESC": "Amyloid-beta(1-40) binding to heparin (HS-GAG) (Homo sapiens)", "log10 of IC50": 0.81}

Entry Clc1ccc2c(Nc3ccc(-n4ccnc4)nc3)ncnc2c1 ; log10 of IC50 = 1.51

For reference, reported log10 of IC50 for Cc1cc(-n2ccnc2)ccc1/C=N/Nc1ccnc2cc(Cl)ccc12 stands at 0.56

Lab note: measured log10 of IC50 of C/C(=N\Nc1ncnc2cc(F)ccc12)c1ccc(-n2cnc(C)c2C)nc1 was 0.87

Summary for this compound, CC(=NNc1ncnc2cc(Cl)ccc12)c1ccnc(-n2cnc(C)c2C)c1 : log10 of IC50 is 0.49

Reference source: patent US20240398783A1
